assayRemarks: log P by HPLC on a reversed-phase column (C 18), EEC Directive 79/831 Annex V.A8
Format: physicochemical
statedConditions: HPLC reversed-phase C 18, 40° C., 0.1% aqueous formic acid and acetonitrile, linear gradient 10% to 95% acetonitrile
Here, each record is paired with measured logP data.
# output: bare number, no unit

Field: example entries. Status: answers known.
>>> experimentalresult("Cc1nc2c(F)c(F)ccc2cc1Nc1ccccc1-c1cncc(F)c1Cl")
3.62
>>> experimentalresult("Cc1nc2c(F)c(F)ccc2cc1Cc1cccc(F)c1-c1ccncc1")
2.00
>>> experimentalresult("COc1nccc(-c2c(F)cccc2Nc2cc3ccc(F)c(F)c3nc2C)c1Cl")
4.09

response.value for `Cc1cc(-c2c(F)cccc2Nc2cc3ccc(F)c(F)c3nc2C)ccn1` (field: logP) = 1.88

Quick note, logP for `Cc1nc2c(F)c(F)ccc2cc1Nc1ccccc1-c1ccncc1C1CC1` landed at 2.12
